Target: T1, KAAG1 disordered region peptide, PGAAAAHLPRWPPPQLAASRREA (biotin (position not given))
T1 peptide: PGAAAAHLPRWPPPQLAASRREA
Assay: ELISA, scaffold coated on the plate, biotinylated peptide titrated, streptavidin-HRP fluorescence
recorded.endpoint: binding result

[[record]]
binder = "S058 (designed binder, Derived from MHC I proteins) GSHSMRYNYTSVSRPGRGEPRFISEGYVDDTQFVRFDSDAASPREEPRAPWIEQEGPEYWDRNTQIYKAQAQTDRESLRNLRGYYNQSEAGSHTLQSMYGCDVGPDGRLLRGHDQYYYDGKDYISLNEDLRSWTAADTAAQITQRKWEAAREAEQRRAYLEGECVEWLRRYLENGKDKLERADGGSHHHHHHLE"
reported_result = "binds"

